Form field: Selectivity (Sel.) (one value per entry).
measurement protocol: Single-stage extraction: partitioning of dicofol technical between n-heptane and 90% aqueous methanol
Assay type: physicochemical
test settings: dicofol technical spiked with 0.72 Wt % p,p'-DDD and separately p,p'-DDT; 50g of 33% solution in 90% aqueous methanol; 40g n-heptane; 23°C
observed property: Selectivity (Sel.)

> print(dat)
                            compound.string   observed.property  assay.value
1    Clc1ccc(C(c2ccc(Cl)cc2)C(Cl)(Cl)Cl)cc1  Selectivity (Sel.)          5.6
2         ClC(Cl)=C(c1ccc(Cl)cc1)c1ccccc1Cl  Selectivity (Sel.)          7.2
3  Clc1ccc(C(Cl)(c2ccc(Cl)cc2)C(Cl)(Cl)Cl)cc1  Selectivity (Sel.)         11.4
4        Clc1ccc(C(c2ccc(Cl)cc2)C(Cl)Cl)cc1  Selectivity (Sel.)          2.1

###

Form field: Distribution coefficient (D.C.) (one value per entry).
measurement protocol: Single-stage extraction: partitioning of dicofol technical between n-heptane and 90% aqueous methanol
Format: physicochemical
test settings: dicofol technical spiked with 0.25 Wt % p,p'-DDD and separately p,p'-DDT; 50g of 33% solution in 90% aqueous methanol; 40g n-heptane; 23°C
Method: A 50g sample of the desired dicofol solution was taken in a stoppered 100 ml graduated cylinder. […] They were then shaken well for two minutes. The samples were placed in an ice-water bath for 30 minutes. After the cooling period all samples were again shaken for 2 minutes. […] The samples were then removed from the bath and volumes recorded (Table I - Columns 2 and 3). […] The separated layers were concentrated under vacuum (70°C, 1 mm Hg), weighed (columns 6 and 7) and analyzed (Table II). […]
observed property: Distribution coefficient (D.C.)

> print(dat)
                            compound.string  assay.value
1    Clc1ccc(C(c2ccc(Cl)cc2)C(Cl)(Cl)Cl)cc1          1.9
2         ClC(Cl)=C(c1ccc(Cl)cc1)c1ccccc1Cl          2.4
3        Clc1ccc(C(c2ccc(Cl)cc2)C(Cl)Cl)cc1         0.66
4  Clc1ccc(C(Cl)(c2ccc(Cl)cc2)C(Cl)(Cl)Cl)cc1          3.7
